System tested: EGFR WT (Ba/F3 cells) (Homo sapiens, UniProt P00533)
Sequence (P00533 25-1210): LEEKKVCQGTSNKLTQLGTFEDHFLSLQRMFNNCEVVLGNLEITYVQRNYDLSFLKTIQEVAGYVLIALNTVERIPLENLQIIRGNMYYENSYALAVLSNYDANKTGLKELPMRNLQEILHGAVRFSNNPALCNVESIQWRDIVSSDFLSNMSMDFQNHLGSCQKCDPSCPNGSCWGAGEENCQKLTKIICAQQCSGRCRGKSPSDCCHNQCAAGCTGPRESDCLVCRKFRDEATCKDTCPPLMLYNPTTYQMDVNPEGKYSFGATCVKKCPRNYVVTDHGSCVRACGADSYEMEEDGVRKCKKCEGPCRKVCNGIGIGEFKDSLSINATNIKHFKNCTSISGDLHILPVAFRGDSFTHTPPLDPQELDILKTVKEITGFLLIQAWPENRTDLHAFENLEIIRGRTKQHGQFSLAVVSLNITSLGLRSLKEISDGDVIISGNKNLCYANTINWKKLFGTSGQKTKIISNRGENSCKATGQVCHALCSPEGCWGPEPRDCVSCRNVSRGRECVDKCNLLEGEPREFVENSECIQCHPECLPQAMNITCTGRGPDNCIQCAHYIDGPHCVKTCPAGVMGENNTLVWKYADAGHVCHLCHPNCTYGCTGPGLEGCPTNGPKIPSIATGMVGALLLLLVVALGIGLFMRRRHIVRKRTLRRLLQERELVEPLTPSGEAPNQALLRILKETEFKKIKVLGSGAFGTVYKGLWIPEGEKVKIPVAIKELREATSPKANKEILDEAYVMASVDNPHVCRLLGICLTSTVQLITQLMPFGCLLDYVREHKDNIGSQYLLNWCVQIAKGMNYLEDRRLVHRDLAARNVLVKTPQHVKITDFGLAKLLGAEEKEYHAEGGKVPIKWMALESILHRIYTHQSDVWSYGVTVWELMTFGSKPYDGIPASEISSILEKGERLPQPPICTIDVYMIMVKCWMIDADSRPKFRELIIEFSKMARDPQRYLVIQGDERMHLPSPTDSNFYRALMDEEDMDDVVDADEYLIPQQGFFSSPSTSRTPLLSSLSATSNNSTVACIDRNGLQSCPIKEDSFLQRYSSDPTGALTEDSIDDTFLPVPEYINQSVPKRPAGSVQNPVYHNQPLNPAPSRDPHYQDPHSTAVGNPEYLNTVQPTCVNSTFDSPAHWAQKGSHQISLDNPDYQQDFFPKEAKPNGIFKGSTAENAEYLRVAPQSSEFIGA
Measurement notes: Inhibitor activity on EGFR-dependent cell growth (CellTiter-Glo, 72 h), Ba/F3 EGFR WT
Test parameters: read-out: BaF3 WT IC50
Recorded metric: IC50

Past entries and their recorded results:
COc1c(Cl)cccc1Nc1c(-c2ccnc3ccc(OC4CCC4)nc23)[nH]c2c1C(=O)NCC2 [compound 768]
100 to 1000 nM
COc1c(Cl)cccc1Nc1c(-c2ccnc(N)n2)[nH]c2c1C(=O)NCC2 [Compound 148]
100 to 1000 nM
COc1c(Cl)cccc1Nc1c(-c2ccnc(Nc3ccn(CC(C)(C)O)n3)n2)[nH]c2c1C(=O)NCC2 [compound 537]
100 to 1000 nM
COc1c(Cl)cccc1Nc1c(-c2ccncc2F)[nH]c2c1C(=O)NC[C@@H]2C[C@@H]1COCCO1 [Compound 482]
< 100 nM
COc1c(Cl)cccc1Nc1c(-c2ccncc2F)[nH]c2c1C(=O)NC[C@H]2CC(C)(C)O [compound 495]
> 1000 nM

For each entry beneath this line, provide reported IC50.
1. C=CC(=O)N1CCC2(CC1)CNC(=O)c1c2[nH]c(-c2ccncc2F)c1Nc1cc(F)cc(F)c1OC [compound 610]
2. COc1ncc2nccc(-c3[nH]c4c(c3Nc3cccc(Cl)c3C)C(=O)NCC4)c2n1 [Compound 793]

*A*
1: 100 to 1000 nM; 2: 100 to 1000 nM

###

System tested: EGFR exon 20 NPG Ins D770_N771 (Ba/F3 cells) (Homo sapiens, UniProt P00533, INS770NPG)
Construct: expressed in transfected cells; host or cells: Ba/F3 (murine pro-B cells), retroviral transduction, puromycin selection, IL3-independent pool
Sequence (P00533 with tags, fused parts or gaps INS770NPG): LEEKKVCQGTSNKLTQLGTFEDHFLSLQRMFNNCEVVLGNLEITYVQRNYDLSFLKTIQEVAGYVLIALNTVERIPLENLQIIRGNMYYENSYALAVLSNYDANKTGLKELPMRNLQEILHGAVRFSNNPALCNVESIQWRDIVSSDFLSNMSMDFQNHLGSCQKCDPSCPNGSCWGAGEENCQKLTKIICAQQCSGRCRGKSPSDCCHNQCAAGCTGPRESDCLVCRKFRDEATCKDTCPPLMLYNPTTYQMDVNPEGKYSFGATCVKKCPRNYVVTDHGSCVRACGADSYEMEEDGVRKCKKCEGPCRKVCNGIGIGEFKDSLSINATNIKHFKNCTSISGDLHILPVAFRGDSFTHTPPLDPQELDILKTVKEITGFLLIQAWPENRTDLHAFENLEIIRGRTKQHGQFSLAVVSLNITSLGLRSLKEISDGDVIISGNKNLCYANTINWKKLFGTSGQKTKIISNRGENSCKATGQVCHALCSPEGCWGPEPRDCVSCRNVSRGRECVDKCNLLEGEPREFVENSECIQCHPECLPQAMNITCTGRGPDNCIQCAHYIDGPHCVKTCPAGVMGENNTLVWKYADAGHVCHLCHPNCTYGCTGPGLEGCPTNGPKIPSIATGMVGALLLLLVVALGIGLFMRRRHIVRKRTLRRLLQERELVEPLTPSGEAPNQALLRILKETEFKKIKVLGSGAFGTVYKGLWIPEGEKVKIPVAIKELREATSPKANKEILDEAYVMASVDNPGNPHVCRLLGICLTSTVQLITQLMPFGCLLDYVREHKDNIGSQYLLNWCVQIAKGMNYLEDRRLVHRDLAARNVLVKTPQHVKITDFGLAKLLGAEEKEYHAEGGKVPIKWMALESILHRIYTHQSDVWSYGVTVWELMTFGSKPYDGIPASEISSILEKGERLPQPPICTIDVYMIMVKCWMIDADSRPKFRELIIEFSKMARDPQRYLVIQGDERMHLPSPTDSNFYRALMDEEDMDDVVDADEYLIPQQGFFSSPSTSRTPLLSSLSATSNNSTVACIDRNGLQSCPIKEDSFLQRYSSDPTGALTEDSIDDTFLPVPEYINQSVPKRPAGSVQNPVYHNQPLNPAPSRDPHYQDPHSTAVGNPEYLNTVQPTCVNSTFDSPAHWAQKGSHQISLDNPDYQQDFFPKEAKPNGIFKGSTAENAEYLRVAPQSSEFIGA
Measurement notes: Inhibitor activity on EGFR-dependent cell growth (CellTiter-Glo, 72 h), Ba/F3 EGFR exon 20 NPG Ins
Type: cell-based
Test parameters: read-out: BaF3 NPG IC50
pIC50: −log10 of the molar value.
Could you please report measured pIC50 for the items listed next?

Use these answered entries as a reference point.
C=CC(=O)N1CCC2(CC1)CNC(=O)c1c2[nH]c(-c2ccncc2F)c1Nc1cccc(Cl)c1F [Compound 586]
> 7.00
COc1nc2c(-c3[nH]c4c(c3Nc3cccc(F)c3OC)C(=O)NCC4)ccnc2cc1C [Compound 682]
> 7.00
COc1c(Cl)cccc1Nc1c(-c2ccnc3ccc(OCCN(C)C)nc23)[nH]c2c1C(=O)NCC2 [compound 736]
6.00 to 7.00
COc1c(F)cccc1Nc1c(-c2ccnc3ccc(N(C)C)nc23)[nH]c2c1C(=O)NCC2 [Compound 697]
> 7.00
CCOc1ccc2nccc(-c3[nH]c4c(c3Nc3cccc(Cl)c3OC)C(=O)NCC4)c2n1 [compound 761]
> 7.00

Quick request: pIC50 for each listed item, please.
1. COC(=O)N1CC[C@@]2(CNC(=O)c3c2[nH]c(-c2ccncc2F)c3Nc2cccc(Cl)c2OC)C1 [Compound 498]
2. COc1c(Cl)cccc1Nc1c(-c2ccnc(Nc3nnn(C)c3C)n2)[nH]c2c1C(=O)NCC2 [compound 607]
3. COCC[C@@H]1CNC(=O)c2c1[nH]c(-c1ccnc(N)n1)c2Nc1cccc(Cl)c1OC [Compound 726]

*A*
1. 6.00 to 7.00
2. < 6.00
3. > 7.00

###

System tested: EGFR exon 20 NPG Ins D770_N771 (Ba/F3 cells) (Homo sapiens, UniProt P00533, INS770NPG)
Construct: expressed in transfected cells; host or cells: Ba/F3 (murine pro-B cells), retroviral transduction, puromycin selection, IL3-independent pool
Measurement notes: Inhibitor activity on EGFR-dependent cell growth (CellTiter-Glo, 72 h), Ba/F3 EGFR exon 20 NPG Ins
Format: cell-based
Test parameters: read-out: BaF3 NPG IC50
pIC50: −log10 of the molar value.
Recorded metric: pIC50

// each compound listed below needs its pIC50
1. COCC[C@H]1CNC(=O)c2c1[nH]c(-c1ccnc(N)n1)c2Nc1cccc(Cl)c1OC
2. C=CC(=O)N1CCC2(CC1)CNC(=O)c1c2[nH]c(-c2ccncc2F)c1Nc1cccc(F)c1CC
3. COc1c(Cl)cccc1Nc1c(-c2ccnc(C)n2)[nH]c2c(C[C@@H]3COCCO3)c[nH]c(=O)c12
4. COc1c(Cl)cccc1Nc1c(-c2ccnc3cnc(OC4COC4)nc23)[nH]c2c1C(=O)NCC2
5. Nc1nccc(-c2[nH]c3c(c2Nc2cccc(C(F)(F)F)c2)C(=O)NCC3)n1
6. C=CC(=O)N1CCC2(CC1)CNC(=O)c1c2[nH]c(-c2ccnc(C)n2)c1Nc1cc(F)cc(F)c1OC
7. COc1c(Cl)cccc1Nc1c(-c2ccnc(NCC(F)(F)F)n2)[nH]c2c1C(=O)NCC2
8. COc1c(F)cccc1Nc1c(-c2snc3ccccc23)[nH]c2c1C(=O)NCC2

*A*
1. > 7.00
2. > 7.00
3. > 7.00
4. > 7.00
5. 6.00 to 7.00
6. > 7.00
7. < 6.00
8. < 6.00

###

System tested: EGFR WT (Ba/F3 cells) (Homo sapiens)
Construct: expressed in transfected cells; host or cells: Ba/F3 (murine pro-B cells), retroviral transduction, puromycin selection, maintained with EGF
Measurement notes: Inhibitor activity on EGFR-dependent cell growth (CellTiter-Glo, 72 h), Ba/F3 EGFR WT
Format: cell-based
Test parameters: read-out: BaF3 WT IC50
Recorded metric: IC50

CCc1c(F)cccc1Nc1c(-c2ccnc3cnc(OC)nc23)[nH]c2c1C(=O)NCC2
100 to 1000 nM
COc1c(Cl)cccc1Nc1c(-c2nc(N)ncc2C#N)[nH]c2c1C(=O)NCC2
> 1000 nM
COc1c(Cl)cccc1Nc1c(-c2ccncc2F)[nH]c2c1C(=O)NC[C@]21CCN(C(C)=O)C1
> 1000 nM
COc1c(Cl)cccc1Nc1c(-c2ccncc2F)[nH]c2c1C(=O)NCC2CC1CCO1 (single isomer, unassigned) [Compound 784]
> 1000 nM
COc1c(Cl)cccc1Nc1c(-c2ccnc3ccc(OCCN(C)C)nc23)[nH]c2c1C(=O)NCC2
100 to 1000 nM

Hi there! I need IC50 for each item below, if you can.
1. COc1ccc2nccc(-c3[nH]c4c(c3Nc3cccc(F)c3C)C(=O)NCC4)c2n1
2. COCCOc1cncnc1-c1[nH]c2c(c1Nc1cccc(F)c1OC)C(=O)NCC2
3. COc1c(F)cccc1Nc1c(-c2snc3cccnc23)[nH]c2c1C(=O)NCC2
4. COCC[C@@H]1CNC(=O)c2c1[nH]c(-c1ccnc(N)n1)c2Nc1cccc(Cl)c1OC
5. COc1ncc2nccc(-c3[nH]c4c(c3Nc3cccc(F)c3OC)C(=O)NCC4)c2n1
6. COc1c(Cl)cccc1Nc1c(-c2ccncc2F)[nH]c2c1C(=O)NC[C@]21CCN(CC(F)F)C1
7. COCc1ccc2nccc(-c3[nH]c4c(c3Nc3cccc(Cl)c3OC)C(=O)NCC4)c2n1
8. COc1c(F)cccc1Nc1c(-c2ccnc(-c3cnn(C)c3)c2)[nH]c2c1C(=O)NCC2

*A*
100 to 1000 nM
> 1000 nM
> 1000 nM
< 100 nM
100 to 1000 nM
100 to 1000 nM
< 100 nM
> 1000 nM

Okay, here is my list. What is IC50 for each of these?
1. Cc1c(C#N)cccc1Nc1c(-c2ccnc(N)n2)[nH]c2c1C(=O)NCC2
2. COc1c(F)cccc1Nc1c(-c2ccnc(Nc3cnn(C)n3)n2)[nH]c2c1C(=O)NCC2
3. COc1c(F)cccc1Nc1c(-c2ccnc3cccnc23)[nH]c2c1C(=O)NCC2

*A*
1. > 1000 nM
2. 100 to 1000 nM
3. 100 to 1000 nM

###

System tested: EGFR exon 20 FQEA Ins A763_V764 (Ba/F3 cells) (Homo sapiens, UniProt P00533, INS763FQEA)
Sequence (P00533 with tags, fused parts or gaps INS763FQEA): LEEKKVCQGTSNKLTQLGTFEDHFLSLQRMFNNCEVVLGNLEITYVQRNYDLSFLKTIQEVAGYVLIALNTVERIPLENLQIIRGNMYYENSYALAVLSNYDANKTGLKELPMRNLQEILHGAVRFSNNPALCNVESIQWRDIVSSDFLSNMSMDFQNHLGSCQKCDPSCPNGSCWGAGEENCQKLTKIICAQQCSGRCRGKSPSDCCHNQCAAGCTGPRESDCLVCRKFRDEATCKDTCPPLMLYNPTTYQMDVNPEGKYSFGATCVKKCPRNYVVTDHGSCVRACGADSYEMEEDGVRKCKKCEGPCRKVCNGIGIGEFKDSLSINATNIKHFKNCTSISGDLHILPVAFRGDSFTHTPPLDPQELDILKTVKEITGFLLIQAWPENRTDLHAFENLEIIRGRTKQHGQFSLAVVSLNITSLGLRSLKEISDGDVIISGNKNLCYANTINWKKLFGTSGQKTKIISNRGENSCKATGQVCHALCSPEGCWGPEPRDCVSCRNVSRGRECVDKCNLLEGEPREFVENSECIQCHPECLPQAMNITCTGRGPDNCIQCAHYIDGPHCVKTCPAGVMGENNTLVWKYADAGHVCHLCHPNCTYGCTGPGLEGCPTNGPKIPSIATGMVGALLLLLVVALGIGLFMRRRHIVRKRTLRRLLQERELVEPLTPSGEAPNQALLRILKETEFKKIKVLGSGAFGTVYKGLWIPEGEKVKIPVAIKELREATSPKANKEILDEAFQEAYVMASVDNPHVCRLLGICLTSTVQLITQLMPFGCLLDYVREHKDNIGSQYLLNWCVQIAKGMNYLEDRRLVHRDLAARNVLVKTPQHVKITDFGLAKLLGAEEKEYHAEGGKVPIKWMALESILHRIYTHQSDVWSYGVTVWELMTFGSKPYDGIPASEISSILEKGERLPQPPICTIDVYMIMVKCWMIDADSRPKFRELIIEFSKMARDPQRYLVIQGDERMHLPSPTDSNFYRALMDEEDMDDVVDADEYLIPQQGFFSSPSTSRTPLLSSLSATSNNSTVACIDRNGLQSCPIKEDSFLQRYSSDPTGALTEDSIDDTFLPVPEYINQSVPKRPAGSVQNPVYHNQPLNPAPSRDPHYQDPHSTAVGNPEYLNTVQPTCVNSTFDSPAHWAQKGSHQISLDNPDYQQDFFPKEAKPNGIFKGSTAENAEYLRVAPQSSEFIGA
Measurement notes: Inhibitor activity on EGFR-dependent cell growth (CellTiter-Glo, 72 h), Ba/F3 EGFR exon 20 FQEA Ins
Test parameters: read-out: BaF3 FQEA IC50
Recorded metric: IC50

The cases that follow already have their IC50 on record.
COc1c(Cl)cccc1Nc1c(-c2ccnc(N)n2)[nH]c2c1C(=O)N[C@H](C)C2 [187b]
0.1 to 1 µM
COc1c(Cl)cccc1Nc1c(-c2ccnc(C(F)(F)F)n2)[nH]c2c1C(=O)NCC2
> 1 µM
COc1ccc2ncc(F)c(-c3[nH]c4c(c3Nc3cccc(Cl)c3OC)C(=O)NCC4)c2n1
> 1 µM

Next molecule, please.
Briefly, IC50 measured for CSc1c(F)cccc1Nc1c(-c2ccnc(N)n2)[nH]c2c1C(=O)NCC2 : 0.1 to 1 µM

###

Provide the reported pIC50 of each item.
System tested: EGFR exon 20 FQEA Ins A763_V764 (Ba/F3 cells) (Homo sapiens, UniProt P00533, INS763FQEA)
Measurement notes: Inhibitor activity on EGFR-dependent cell growth (CellTiter-Glo, 72 h), Ba/F3 EGFR exon 20 FQEA Ins
Test parameters: read-out: BaF3 FQEA IC50
pIC50: −log10 of the molar value.

COc1c(Cl)cccc1Nc1c(-c2ccnc(NC(C)=O)n2)[nH]c2c1C(=O)NCC2 [compound 220]
6.00 to 7.00
COc1c(Cl)cccc1Nc1c(-c2ccnc3ccc(OC[C@H]4CCO4)nc23)[nH]c2c1C(=O)NCC2 [compound 734]
> 7.00
COc1c(F)cccc1Nc1c(-c2ccnc3cnc(OC4CC4)nc23)[nH]c2c1C(=O)NCC2 [compound 413]
> 7.00
COc1c(Cl)cccc1Nc1c(-c2ccnc3ccc(OC4(C)CC4)nc23)[nH]c2c1C(=O)NC[C@@H]2C (single isomer, unassigned) [Compound 775]
> 7.00
COc1c(Cl)cccc1Nc1c(-c2ccncc2F)[nH]c2c1C(=O)NC[C@@H]2CC1COC1 [468a]
< 6.00

Report pIC50 for each item below.
1. COc1c(Cl)cccc1Nc1c(-c2ccnc(NCc3ccccc3)n2)[nH]c2c1C(=O)NCC2 [compound 209]
2. COc1c(F)cccc1Nc1c(-c2nnc3ccccn23)[nH]c2c1C(=O)NCC2 [compound 239]
3. COc1c(Cl)cccc1Nc1c(-c2ccnc3cnc(OC4COC4)nc23)[nH]c2c1C(=O)NCC2 [compound 441]

*A*
< 6.00
< 6.00
> 7.00

Provide the reported pIC50 of each entry below, same order.
1. Nc1nccc(-c2[nH]c3c(c2Nc2ccccc2Cl)C(=O)NCC3)n1 [compound 194]
2. Nc1nccc(-c2[nH]c3c(c2Nc2cc(F)cc(F)c2)C(=O)NCC3)n1 [compound 204]
3. COc1c(Cl)cccc1Nc1c(-c2ccncc2F)[nH]c2c1C(=O)NCC21CCOCC1 [Compound 778]
4. COc1c(Cl)cccc1Nc1c(-c2ccnc3ccc(OC4COC4)nc23)[nH]c2c1C(=O)NCC21CC1 [Compound 777]
5. COc1c(Cl)cccc1Nc1c(-c2ccncc2F)[nH]c2c1C(=O)NC[C@@H]2CC(=O)N(C)C [Compound 488]
6. COc1c(Cl)cccc1Nc1c(-c2ccnc(NC[C@H]3CCO3)n2)[nH]c2c1C(=O)NCC2 [compound 720]
7. COCC[C@H]1CNC(=O)c2c1[nH]c(-c1ccncn1)c2Nc1cccc(Cl)c1OC [445b]
8. COc1c(Cl)cccc1Nc1c(-c2ccnc3ccc(O[C@H]4CCCOC4)nc23)[nH]c2c1C(=O)NCC2 [compound 741, formic acid]

*A*
1: 6.00 to 7.00; 2: 6.00 to 7.00; 3: 6.00 to 7.00; 4: > 7.00; 5: 6.00 to 7.00; 6: < 6.00; 7: 6.00 to 7.00; 8: > 7.00

From: patent US20240101576A1
